The measurements presented in this section are drawn from paper PMC12302229.

Biological target: galectin-3 (Homo sapiens, UniProt P17931)
Construct: made in house
Sequence (P17931 whole entry): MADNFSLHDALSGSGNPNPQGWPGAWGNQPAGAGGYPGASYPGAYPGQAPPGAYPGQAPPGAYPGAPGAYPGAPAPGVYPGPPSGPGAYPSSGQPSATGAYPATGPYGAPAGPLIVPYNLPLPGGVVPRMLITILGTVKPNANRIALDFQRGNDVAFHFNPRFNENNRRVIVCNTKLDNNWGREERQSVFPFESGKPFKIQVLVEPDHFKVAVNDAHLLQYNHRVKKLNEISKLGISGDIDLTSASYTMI
Test: competitive fluorescence polarization assay, galectin-3
Settings: Kd and SEM from 3–6 single point measurements, > values estimated, no apparent binding at highest concentration, read-out: Dissociation constants, Galectin-3
outcome.measure: pKd
Give bare numbers, as −log10 of the molar value.

OC[C@H]1O[C@@H](c2cn(-c3ccccn3)nn2)[C@H](O)[C@@H](O)[C@H]1O
3.06

Report pKd for OC[C@H]1O[C@@H](Cn2cc(-c3ccc(C(F)(F)F)cc3)nn2)[C@H](O)[C@@H](n2cc(-c3ccccc3)nn2)[C@H]1O [Compound 24b] please.
3.14

* * *

Target: galectin-1 (Homo sapiens)
Construct: made in house
Sequence (P09382 whole entry): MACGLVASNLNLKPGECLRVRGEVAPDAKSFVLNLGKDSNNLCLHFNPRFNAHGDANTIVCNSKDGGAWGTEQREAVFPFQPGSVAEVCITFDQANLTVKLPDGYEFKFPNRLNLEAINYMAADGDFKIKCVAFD
Test: competitive fluorescence polarization assay, galectin-1
Format: binding
Details: fluorescence polarization; Kd and SEM from 3–6 single point measurements; read-out: Dissociation constants, Galectin-1
outcome.measure: Kd (µM)
Give bare numbers, in µM.

Example entries and their recorded answers appear below.
OC[C@H]1O[C@@H](c2cn(-c3cccc(Cl)c3F)nn2)[C@H](O)[C@@H](O)[C@H]1O [Compound 1n]
1100
OC[C@H]1O[C@@H](c2cn(-c3ccccn3)nn2)[C@H](O)[C@@H](n2cc(-c3ccccc3)nn2)[C@H]1O [Compound 16b]
180
Cc1ccc(-n2cc([C@@H]3O[C@H](CO)[C@H](O)[C@H](O)[C@H]3O)nn2)cc1Cl [Compound 1q]
1200
OC[C@H]1O[C@@H](Cn2cc(-c3cc(F)c(F)c(F)c3)nn2)[C@H](O)[C@@H](n2cc(-c3ccccc3)nn2)[C@H]1O [Compound 24d]
240
OC[C@H]1O[C@@H](c2cn(-c3ccc4c(c3)CCC4)nn2)[C@H](O)[C@@H](O)[C@H]1O [Compound 1u]
2100
OC[C@H]1O[C@@H](c2cn(-c3cccc(Br)c3)nn2)[C@H](O)[C@@H](O)[C@H]1O [Compound 1d]
1400

For the next question, use this compound.
Which Kd reading was recorded for the compound OC[C@H]1O[C@@H](c2cn(-c3cccc(I)c3)nn2)[C@H](O)[C@@H](O)[C@H]1O [Compound 1f] ?
1300
